Notes on IC50 obtained with GST-tagged SIK1 (Homo sapiens (Human)).
Sequence (P57059 whole entry): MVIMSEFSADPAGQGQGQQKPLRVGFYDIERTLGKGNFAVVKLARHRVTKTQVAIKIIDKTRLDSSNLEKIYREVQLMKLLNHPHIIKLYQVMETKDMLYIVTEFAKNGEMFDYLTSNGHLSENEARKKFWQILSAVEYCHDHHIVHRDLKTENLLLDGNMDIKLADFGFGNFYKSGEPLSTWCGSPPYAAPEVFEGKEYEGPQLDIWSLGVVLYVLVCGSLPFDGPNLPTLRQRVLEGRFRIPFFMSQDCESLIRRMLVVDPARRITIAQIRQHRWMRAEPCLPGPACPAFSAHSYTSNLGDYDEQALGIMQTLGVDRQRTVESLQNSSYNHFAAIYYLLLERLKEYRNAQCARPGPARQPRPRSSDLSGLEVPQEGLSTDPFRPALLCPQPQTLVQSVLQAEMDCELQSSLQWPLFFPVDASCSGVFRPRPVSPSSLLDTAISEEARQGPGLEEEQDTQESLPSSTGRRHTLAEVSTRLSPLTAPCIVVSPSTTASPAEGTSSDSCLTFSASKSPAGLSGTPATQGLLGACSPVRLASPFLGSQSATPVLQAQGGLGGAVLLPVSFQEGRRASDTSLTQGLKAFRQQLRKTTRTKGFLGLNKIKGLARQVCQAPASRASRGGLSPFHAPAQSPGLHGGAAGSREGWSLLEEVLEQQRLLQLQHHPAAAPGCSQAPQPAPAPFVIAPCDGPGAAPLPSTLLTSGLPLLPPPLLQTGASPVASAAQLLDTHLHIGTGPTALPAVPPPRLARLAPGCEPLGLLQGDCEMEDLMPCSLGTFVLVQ

>  <molecule>
COc1cc(-c2c3c(C#N)cc(-c4cnn(CC5COC5)c4)cc3nn2C)cc(OC(F)F)c1C(=O)NCC1(F)CC1

>  <result unit>
nM

>  <IC50>
14.1

$$$$
>  <molecule>
Cn1cc(-c2cc(C#N)c3c(-c4ccc(C(=O)N[C@@H]5CC5(F)F)c(OC(F)F)c4)n(C)nc3c2)cn1

>  <result unit>
nM

>  <IC50>
10.4

$$$$
>  <molecule>
COc1cc(-c2c3c(C#N)cc(-c4cnn(C)c4)cc3nn2C)cc2c1C(=O)NCC2C (centres unmarked)

>  <result unit>
nM

>  <IC50>
11.8

$$$$
>  <molecule>
COc1cc(-c2c3c(C#N)cc(-c4cnn(CC(C)(C)O)c4)cc3nn2C)cc(OC(F)F)c1C(=O)N1CC(O)(C(F)(F)F)C1

>  <result unit>
nM

>  <IC50>
8.7

$$$$
>  <molecule>
COc1cc(-c2c3c(C#N)cc(-c4cnn(CC5CCCS5(=O)=O)c4)cc3nn2C)cc(OC(F)F)c1C(=O)NCC1(F)CC1 (centres unmarked)

>  <result unit>
nM

>  <IC50>
16

$$$$
>  <molecule>
COc1cc(-c2cnn3cc(OCCN4CCOCC4)ccc23)cc2c1C(=O)N(CC(F)(F)F)CC2 [Comparative Example 6, reference compound]

>  <result unit>
nM

>  <IC50>
5220

$$$$
>  <molecule>
COc1cc(-c2c3c(OCCCO)cc(-c4cnn(C)c4)cc3nn2C)cc(OC(F)F)c1C(=O)N1CC(O)(C(F)(F)F)C1

>  <result unit>
nM

>  <IC50>
7.3

$$$$
>  <molecule>
CCOc1cc(-c2cnn(C)c2)cc2nn(C)c(-c3cc(OC)c(C(N)=O)c(OC(F)F)c3)c12

>  <result unit>
nM

>  <IC50>
7.6

$$$$

---

biological target: GST-tagged SIK2 (Homo sapiens (Human), UniProt Q9H0K1)
Sequence (Q9H0K1 whole entry): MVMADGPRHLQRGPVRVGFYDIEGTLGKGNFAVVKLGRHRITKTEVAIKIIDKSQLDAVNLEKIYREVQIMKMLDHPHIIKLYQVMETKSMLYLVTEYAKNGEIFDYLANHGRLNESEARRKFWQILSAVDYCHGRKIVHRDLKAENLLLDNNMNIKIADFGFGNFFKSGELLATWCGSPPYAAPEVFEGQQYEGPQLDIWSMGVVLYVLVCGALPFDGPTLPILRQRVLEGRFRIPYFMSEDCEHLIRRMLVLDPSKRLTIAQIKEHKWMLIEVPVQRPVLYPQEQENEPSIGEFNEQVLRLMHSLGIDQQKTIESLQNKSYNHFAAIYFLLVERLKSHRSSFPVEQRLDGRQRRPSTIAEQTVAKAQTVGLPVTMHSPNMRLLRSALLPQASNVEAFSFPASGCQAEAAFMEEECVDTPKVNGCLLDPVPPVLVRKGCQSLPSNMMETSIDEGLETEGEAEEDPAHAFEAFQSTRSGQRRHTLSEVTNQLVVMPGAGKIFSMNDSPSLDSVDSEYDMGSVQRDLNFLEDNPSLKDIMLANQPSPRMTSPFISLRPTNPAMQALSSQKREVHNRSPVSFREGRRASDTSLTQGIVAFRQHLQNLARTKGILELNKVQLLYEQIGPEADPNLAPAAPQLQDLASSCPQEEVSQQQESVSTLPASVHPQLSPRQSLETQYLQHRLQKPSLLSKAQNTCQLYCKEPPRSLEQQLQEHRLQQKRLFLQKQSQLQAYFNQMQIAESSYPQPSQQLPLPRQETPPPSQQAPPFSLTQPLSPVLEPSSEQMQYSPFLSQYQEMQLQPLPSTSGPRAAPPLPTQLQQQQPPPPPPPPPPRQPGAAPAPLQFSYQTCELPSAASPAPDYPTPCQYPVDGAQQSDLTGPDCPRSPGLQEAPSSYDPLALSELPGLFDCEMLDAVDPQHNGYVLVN
Lab note: anything with IC50 below 10 nM is marked class 1; values at 10 nM or higher are marked class 0.

>  <compound>
COCCn1cc(-c2cc(C#N)c3c(-c4cc(OC(F)F)c5c(c4)[C@@H](C)CNC5=O)n(C)nc3c2)cn1 (single isomer, unassigned) [Example 172]

>  <tested system>
GST-tagged SIK2 (Homo sapiens (Human), UniProt Q9H0K1)

>  <label>
class 1

$$$$
>  <compound>
COc1cc(-c2c3c(C#N)cc(-c4cnn(CC5CCS5(=O)=O)c4)cc3nn2C)cc(OC(F)F)c1C(=O)NCC1(F)CC1 (stereo not drawn)

>  <tested system>
GST-tagged SIK2 (Homo sapiens (Human), UniProt Q9H0K1)

>  <label>
class 1

$$$$
>  <compound>
COc1cc(-c2c3c(OC(F)F)cc(-c4cn(C)nn4)cc3nn2C)cc(OC(F)F)c1C(=O)N1CC(O)(C(F)F)C1

>  <tested system>
GST-tagged SIK2 (Homo sapiens (Human), UniProt Q9H0K1)

>  <label>
class 1

$$$$
>  <compound>
COCCn1cc(-c2cc(OC)c3c(-c4cc(OC(F)F)c5c(c4)[C@@H](C)CNC5=O)n(C)nc3c2)cn1 (single isomer, unassigned) [Example 178]

>  <tested system>
GST-tagged SIK2 (Homo sapiens (Human), UniProt Q9H0K1)

>  <label>
class 1

$$$$
>  <compound>
COc1cc(-c2c3c(OCC4COC4)cc(-c4cnn(C)c4)cc3nn2C)cc(OC(F)F)c1C(=O)N1CC(O)(C(F)(F)F)C1

>  <tested system>
GST-tagged SIK2 (Homo sapiens (Human), UniProt Q9H0K1)

>  <label>
class 1

$$$$
>  <compound>
CCn1cc(-c2cc(C#N)c3c(-c4cc(OC)c(C(N)=O)c(OC(F)F)c4)n(C)nc3c2)cn1

>  <tested system>
GST-tagged SIK2 (Homo sapiens (Human), UniProt Q9H0K1)

>  <label>
class 1

$$$$
>  <compound>
COc1cc(-c2c3c(C#N)cc(-c4cnn(C)c4)cc3nn2C)cc(OC(F)F)c1C(=O)N1CC(C#N)(C(F)F)C1

>  <tested system>
GST-tagged SIK2 (Homo sapiens (Human), UniProt Q9H0K1)

>  <label>
class 0

$$$$
>  <compound>
COc1cc(-c2c3c(C#N)cc(-c4cc(C)ns4)cc3nn2C)cc(OC(F)F)c1C(=O)N[C@@H]1C[C@@H]1F

>  <tested system>
GST-tagged SIK2 (Homo sapiens (Human), UniProt Q9H0K1)

>  <label>
class 1

$$$$
>  <compound>
COc1cc(-c2c3c(C#N)cc(-c4cnn(CC(C)(C)O)c4)cc3nn2C)cc(OC(F)F)c1C(=O)N1CC(O)(C(F)(F)F)C1

>  <tested system>
GST-tagged SIK2 (Homo sapiens (Human), UniProt Q9H0K1)

>  <label>
class 0

$$$$
>  <compound>
COc1cc(-c2c3c(OCc4ccc(C)nc4)cc(-c4cnn(C)c4)cc3nn2C)cc(OC(F)F)c1C(=O)N1CC(O)(C(F)(F)F)C1

>  <tested system>
GST-tagged SIK2 (Homo sapiens (Human), UniProt Q9H0K1)

>  <label>
class 1

$$$$
>  <compound>
COc1cc(-c2c3c(C#N)cc(-c4cnn(CC5CC5)c4)cc3nn2C)cc(OC(F)F)c1C(=O)N[C@@H]1C[C@@H]1F

>  <tested system>
GST-tagged SIK2 (Homo sapiens (Human), UniProt Q9H0K1)

>  <label>
class 1

$$$$
>  <compound>
COc1cc(-c2c3c(C#N)cc(-c4cnn(CC5CC5)c4)cc3nn2C)cc2c1C(=O)NC[C@@H]2C (single isomer, unassigned)

>  <tested system>
GST-tagged SIK2 (Homo sapiens (Human), UniProt Q9H0K1)

>  <label>
class 1

$$$$
>  <compound>
COc1cc(-c2c3c(C#N)cc(/C=C/c4cnn(C)c4)cc3nn2C)cc(OC(F)F)c1C(=O)N[C@@H]1C[C@@H]1F

>  <tested system>
GST-tagged SIK2 (Homo sapiens (Human), UniProt Q9H0K1)

>  <label>
class 1

$$$$
>  <compound>
CCCCn1cc(-c2cc(C#N)c3c(-c4cc(OC)c5c(c4)[C@@H](C)CNC5=O)n(C)nc3c2)cn1 (single isomer, unassigned)

>  <tested system>
GST-tagged SIK2 (Homo sapiens (Human), UniProt Q9H0K1)

>  <label>
class 1

$$$$
>  <compound>
COc1cc(-c2c3ccc(N4CCN(C)CC4)cc3nn2C)cc2c1C(=O)N(CC(F)(F)F)CC2 [Comparative Example 8, reference compound]

>  <tested system>
GST-tagged SIK2 (Homo sapiens (Human), UniProt Q9H0K1)

>  <label>
class 0

$$$$
>  <compound>
COCCn1cc(-c2cc(OC)c3c(-c4cc(OC(F)F)c5c(c4)[C@@H](C)CNC5=O)n(C)nc3c2)cn1 (single isomer, unassigned) [Example 177]

>  <tested system>
GST-tagged SIK2 (Homo sapiens (Human), UniProt Q9H0K1)

>  <label>
class 1

$$$$
>  <compound>
COc1cc(-c2c3c(C(F)F)cc(-c4cnn(C[C@H](C)O)c4)cc3nn2C)cc(OC(F)F)c1C(=O)N[C@@H]1CC1(F)F

>  <tested system>
GST-tagged SIK2 (Homo sapiens (Human), UniProt Q9H0K1)

>  <label>
class 0

$$$$
>  <compound>
COc1cc(-c2c3c(C#N)cc(-c4cnn(CC(C)(C)O)c4)cc3nn2C)cc(OC(F)F)c1C(=O)N[C@@H]1CC1(F)F

>  <tested system>
GST-tagged SIK2 (Homo sapiens (Human), UniProt Q9H0K1)

>  <label>
class 1

$$$$
>  <compound>
COc1cc(-c2cnc3cc(-c4cnn(C)c4)ccn23)cc2c1C(=O)N(C1CC1)CC2 [Comparative Example 3, reference compound]

>  <tested system>
GST-tagged SIK2 (Homo sapiens (Human), UniProt Q9H0K1)

>  <label>
class 0

$$$$
